Each item that follows carries a reported IC50.
- Measured Target: USP28 (Homo sapiens)
- Construct: purchased R&D Systems China Co., Ltd. (R&D Systems)
- Measurement Notes: USP28 activity by the ubiquitin-rhodamine 110 (Ub-Rh110) method
- Format: biochemical
- Conditions Used: purified USP28 4 nM, Ub-Rh110 125 nM, 30 min preincubation; read-out: Inhibitory activity (IC50) USP28

CCn1ccc2c(NC)c(C(=O)NCC(C)(C)c3ccc(N4CC5CCC(C4)N5)cc3F)cnc21 :: 0.05 to 0.5 µM
CCn1ccc2c(NC)c(C(=O)NCCc3ccc(C4CC5CCC(C4)N5)cc3)cnc21 (stereo not shown) :: < 0.05 µM
CCNc1c(C(=O)NCCc2ccc(N3CC4CCC(C3)N4)cc2)cnc2c1ccn2CC :: 0.5 to 1 µM
CCCCn1ccc2c(NC)c(C(=O)NCCc3ccc(N4CC5CCC(C4)N5)cc3)cnc21 :: < 0.05 µM
CCn1ccc2c(NC)c(C(=O)NCCc3ccc(N4C5CCC4CNC5)cc3)cnc21 :: < 0.05 µM

Per the records, this molecule ( CCn1ccc2c(NC)c(C(=O)NC[C@H](C)c3ccc(N4CC5CCC(C4)N5)cc3)cnc21 ) has IC50 equal to 0.05 to 0.5 µM

IC50 reading for CCCn1ccc2c(NC)c(C(=O)NCCc3ccc(N4CC5CCC(C4)N5)cc3)cnc21 : < 0.05 µM

Measured IC50 of CCn1ccc2c(NC)c(C(=O)NCCc3ccc(N4CC5CCC(C4)N5)cc3F)cnc21 : < 0.05 µM

The molecule identified as CCn1ccc2c(NC)c(C(=O)N[C@H]3COc4cc(N5CC6CCC(C5)N6)ccc4C3)cnc21 registered its IC50 at < 0.05 µM

Entry CCCNc1c(C(=O)NCCc2ccc(N3CC4CCC(C3)N4)cc2)cnc2c1ccn2CC ; IC50 = 1 to 10 µM

* * *

- Measured Target: USP28 (Homo sapiens, UniProt Q96RU2)
- Construct: purchased R&D Systems China Co., Ltd. (R&D Systems)
- Sequence (Q96RU2 whole entry): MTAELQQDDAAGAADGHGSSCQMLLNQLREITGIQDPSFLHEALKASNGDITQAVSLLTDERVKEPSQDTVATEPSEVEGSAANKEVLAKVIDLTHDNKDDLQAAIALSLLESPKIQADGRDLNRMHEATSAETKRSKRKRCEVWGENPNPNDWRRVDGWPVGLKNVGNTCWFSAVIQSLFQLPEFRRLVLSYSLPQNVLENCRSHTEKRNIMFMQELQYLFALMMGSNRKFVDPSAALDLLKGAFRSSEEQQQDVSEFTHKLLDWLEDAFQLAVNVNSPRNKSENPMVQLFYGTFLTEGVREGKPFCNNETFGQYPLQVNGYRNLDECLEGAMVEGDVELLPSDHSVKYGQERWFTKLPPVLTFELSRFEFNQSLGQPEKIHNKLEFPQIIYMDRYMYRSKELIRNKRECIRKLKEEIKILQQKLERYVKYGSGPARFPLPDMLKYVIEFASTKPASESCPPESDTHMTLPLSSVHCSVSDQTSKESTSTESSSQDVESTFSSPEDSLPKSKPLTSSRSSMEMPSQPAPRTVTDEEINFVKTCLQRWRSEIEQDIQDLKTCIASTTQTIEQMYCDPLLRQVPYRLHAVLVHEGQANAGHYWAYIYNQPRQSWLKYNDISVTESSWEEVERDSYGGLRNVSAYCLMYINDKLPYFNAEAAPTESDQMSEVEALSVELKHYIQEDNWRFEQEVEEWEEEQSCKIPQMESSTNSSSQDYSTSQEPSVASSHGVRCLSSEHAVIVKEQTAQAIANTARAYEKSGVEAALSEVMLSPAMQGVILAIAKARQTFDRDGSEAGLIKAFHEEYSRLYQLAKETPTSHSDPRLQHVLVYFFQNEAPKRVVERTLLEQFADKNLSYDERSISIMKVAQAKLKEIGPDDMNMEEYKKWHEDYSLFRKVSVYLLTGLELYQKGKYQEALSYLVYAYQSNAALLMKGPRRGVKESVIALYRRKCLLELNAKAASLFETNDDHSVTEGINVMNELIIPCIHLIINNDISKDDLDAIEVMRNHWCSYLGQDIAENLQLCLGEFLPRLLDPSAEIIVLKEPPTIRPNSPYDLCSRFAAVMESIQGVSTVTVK
- Measurement Notes: USP28 activity by the ubiquitin-rhodamine 110 (Ub-Rh110) method
- Assay type: biochemical
- Conditions Used: purified USP28 4 nM, Ub-Rh110 125 nM, 30 min preincubation; read-out: Inhibitory activity (IC50) USP28
- Experimental: USP28 activity was determined by the ubiquitin-rhodamine 110 (Ub-Rh110) method. Purified USP28 and a substrate Ub-Rh110 used for determining deubiquitinase activity were purchased from R&D Systems China Co., Ltd. (R&D Systems). […] The released fluorescence (excitation wavelength: 485 nm, emission wavelength: 535 nm) was detected immediately on a microplate reader after the addition of the substrate. […]
Each item that follows carries a reported IC50.

Example cases with answers are listed next.
CCn1ccc2c(OC)c(C(=O)NCCc3ccc(N4CCNCC4)cc3)cnc21 [Compound I-33] :: 50 to 500 nM
CCn1ccc2c(NC)c(C(=O)NCCc3ccc(N4CC5CCC(C4)N5)cc3)nnc21 [Compound I-27] :: < 50 nM
CCn1ccc2c(NC)c(C(=O)NCCc3ccc(N4CCNCC4)cc3)cnc21 [Compound I-07] :: < 50 nM
CCn1ccc2c(NC)c(C(=O)NCCc3ccc(N4CC5CCC(C4)N5)cc3)cnc21 [Compound I-02] :: < 50 nM
CCn1ccc2c(NC)c(C(=O)NC[C@@H](C)c3ccc(N4CC5CCC(C4)N5)cc3)cnc21 [Compound I-22] :: 50 to 500 nM

For CCn1ccc2c(NC)c(C(=O)NCCc3ccc(N4CC5CCC(C4)N5)cc3F)nnc21 [Compound I-29] the molecule record lists IC50 as < 50 nM

Record CCn1cc(Cl)c2c(NC)c(C(=O)NCCc3ccc(N4CC5CCC(C4)N5)cc3)cnc21 [Compound I-30] . Reported IC50: < 50 nM

According to the records, this molecule CCn1ccc2c(NC)c(C(=O)NCCc3c[nH]c4ccccc34)cnc21 [Compound I-08] displays IC50 of < 50 nM

So, COc1c(C(=O)NCCc2ccc(N3CC4CCC(C3)N4)cc2)cnc2c1ccn2C [Compound I-31] ? Its IC50 was 1000 to 10000 nM

* * *

- Measured Target: USP25 (Homo sapiens, UniProt Q9UHP3)
pIC50: −log10 of the molar value.
Property Name: pIC50

CCn1ccc2c(OC)c(C(=O)NCCc3ccc(N4CC5CCC(C4)N5)cc3)cnc21 [Compound I-32] :: 5.00 to 6.00

Measured on USP25 (Homo sapiens, UniProt Q9UHP3), CCn1ccc2c(NC)c(C(=O)NCC(C)(C)c3ccc(N4CC5CCC(C4)N5)cc3F)cnc21 [Compound I-06] has a documented pIC50 of 6.00 to 6.30

Entry CCn1ccc2c(NC)c(C(=O)N[C@H]3CCc4cc(N5CC6CCC(C5)N6)ccc4C3)cnc21 [Compound I-25] : pIC50 on USP25 (Homo sapiens, UniProt Q9UHP3) = 6.30 to 7.30

* * *

Measured IC50, listed per entry for reference.
- Measured Target: UniProt Q9UHP3
- Sequence (Q9UHP3 1-1055): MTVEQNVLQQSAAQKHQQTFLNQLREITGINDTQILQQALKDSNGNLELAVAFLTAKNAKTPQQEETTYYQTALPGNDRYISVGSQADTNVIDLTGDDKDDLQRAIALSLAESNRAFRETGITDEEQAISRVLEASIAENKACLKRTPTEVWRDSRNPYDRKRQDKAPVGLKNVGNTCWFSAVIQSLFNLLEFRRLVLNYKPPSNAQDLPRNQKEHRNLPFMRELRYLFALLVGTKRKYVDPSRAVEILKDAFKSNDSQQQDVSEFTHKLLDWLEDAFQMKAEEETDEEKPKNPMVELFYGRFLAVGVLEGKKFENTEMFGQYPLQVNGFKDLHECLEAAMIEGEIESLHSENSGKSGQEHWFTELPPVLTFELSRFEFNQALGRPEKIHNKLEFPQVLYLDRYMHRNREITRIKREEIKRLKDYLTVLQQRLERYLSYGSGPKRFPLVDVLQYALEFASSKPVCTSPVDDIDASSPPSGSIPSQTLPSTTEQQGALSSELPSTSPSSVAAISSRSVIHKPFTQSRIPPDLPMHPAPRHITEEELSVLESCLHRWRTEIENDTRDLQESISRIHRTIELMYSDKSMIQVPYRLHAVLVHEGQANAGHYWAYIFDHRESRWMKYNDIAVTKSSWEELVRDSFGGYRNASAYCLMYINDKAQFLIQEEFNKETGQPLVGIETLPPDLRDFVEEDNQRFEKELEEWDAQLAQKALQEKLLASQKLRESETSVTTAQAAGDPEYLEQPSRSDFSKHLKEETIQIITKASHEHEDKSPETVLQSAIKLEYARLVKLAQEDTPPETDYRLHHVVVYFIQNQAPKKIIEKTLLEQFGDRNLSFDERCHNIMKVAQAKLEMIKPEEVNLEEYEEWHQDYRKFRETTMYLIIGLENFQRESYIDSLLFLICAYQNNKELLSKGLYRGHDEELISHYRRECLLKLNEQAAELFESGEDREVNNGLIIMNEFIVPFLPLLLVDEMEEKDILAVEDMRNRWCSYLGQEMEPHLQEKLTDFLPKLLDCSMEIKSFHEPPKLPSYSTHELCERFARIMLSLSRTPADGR

CCn1ccc2c(NC)c(C(=O)NCCc3ccc(C4C5CCC4CNC5)cc3)cnc21 (stereo not shown) [Compound I-18] :: 50 to 500 nM

Query CCCNc1c(C(=O)NCCc2ccc(N3CC4CCC(C3)N4)cc2)cnc2c1ccn2CC [Compound I-04] yields IC50 of > 10000 nM

Documented IC50 of CCn1ccc2c(NC)c(C(=O)NCCc3ccc(OC)c(OC)c3)cnc21 [Compound I-09] : 50 to 500 nM

Form field IC50, entry CCn1ccc2c(NC)c(C(=O)NCCc3ccc(Br)cc3)cnc21 [Compound I-10] : > 10000 nM

Form: compound = CCn1ccc2c(NC)c(C(=O)NC[C@@H](C)c3ccc(N4CC5CCC(C4)N5)cc3)cnc21 [Compound I-22] ; IC50 = 500 to 1000 nM

Per the record, CNc1c(C(=O)NCCc2ccc(N3CC4CCC(C3)N4)cc2)cnc2[nH]ccc12 [Compound I-11] has IC50 of 500 to 1000 nM

COc1c(C(=O)NCCc2ccc(N3CC4CCC(C3)N4)cc2)cnc2c1ccn2C [Compound I-31] has a reported IC50 of > 10000 nM

IC50 for CNc1c(C(=O)NCCc2ccc(N3CC4CCC(C3)N4)cc2)cnc2c1ccn2CC(F)(F)F [Compound I-15] is < 50 nM

Reported IC50 ( CCNc1c(C(=O)NCCc2ccc(N3CC4CCC(C3)N4)cc2)cnc2c1ccn2CC [Compound I-03] ) = 500 to 1000 nM

Quick note, IC50 for CCn1ccc2c(NC)c(C(=O)N[C@H]3COc4cc(N5CC6CCC(C5)N6)ccc4C3)cnc21 [Compound I-23] landed at < 50 nM

Record CCn1ccc2c(NC)c(C(=O)NCCc3ccc(N4CCNCC4)cc3)nnc21 [Compound I-28] . Reported IC50: < 50 nM

# compound CCn1ccc2c(NC)c(C(=O)NCCc3ccc(C4CC5CCC(C4)N5)cc3)cnc21 (stereo not shown) [Compound I-17] ; its IC50 = 50 to 500 nM

CCn1ccc2c(NC)c(C(=O)NCCc3ccc(N4CC5CCC(C4)N5)cc3F)nnc21 [Compound I-29] yielded IC50 of 50 to 500 nM
